B1: EHEE_rd4_0086 (parent)
chain: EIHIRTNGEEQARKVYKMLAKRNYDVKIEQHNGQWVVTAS

- Variants of: B1
- protocol_notes: folding stability dG (cDNA display proteolysis); higher = more stable
- particulars: PBS, room temperature
experimental_readout: folding stability dG (kcal/mol)
Give bare numbers, in kcal/mol.

Below, each entry is followed by its recorded folding stability dG result.
1) R5S: 1.45
2) T6L: 2.35
3) G33Q: 0.937
4) N23D: 1.33
5) A20S: 1.78
6) N7M: 1.69
7) Q30V: 2.22
8) N7I: 1.69

Quick request: folding stability dG for each listed item, please.
1. Q34W
2. R22T

[2.31, 1.16]

Go through the list and state folding stability dG for each entry.
1. R13S
2. G33W
3. A20R
4. Q34E
5. V26I

1: 0.759; 2: 0.42; 3: 2.14; 4: 1.87; 5: 1.09

Could I get folding stability dG for every one of these entries?
1. Q11E
2. I2W
3. T38I
4. D25I

1: 2.1; 2: 2.36; 3: 2.59; 4: 2.34

For each of the variants below, note its folding stability dG.
1. V26P
2. H31A
3. V37L
4. I4K

1. 1.02
2. 1.67
3. 0.844
4. -0.031

# return folding stability dG for each item in the list
1. I2V
2. A20K
3. Q34T
4. K14S

1. 1.42
2. 2.43
3. 1.95
4. 1.34

Items follow; give folding stability dG for each.
1. N32W
2. Q34I

1. 1.12
2. 2.27
